B1: ZNF263 (parent)
chain: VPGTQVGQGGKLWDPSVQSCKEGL

variants of: B1; assay: protein stability index of a GFP-peptide fusion (GPS, HEK-293T) (PSI 1-6); higher = more stable; details: c terminus: a fixed tail appended;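 further: lentivirally expressed fusions sorted by FACS into six bins by GFP to DsRed ratio, PSI derived from sequencing read proportions per bin multiplied by bin number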
We use 4 as the dividing line for protein stability index: on or above the line is Met, below is Not met.

The following variants have reported results that may help.
P15T	Met
L12R	Met
D14K	Not met
P2Q	Not met
C20E	Met

Problem: API: above_or_equal(metric=protein stability index, cutoff=4) for item P2D
Solution: Met

Problem: Hi team, for Q18N , is the recorded protein stability index at or above 4?
Solution: Not met

Problem: Tell me whether protein stability index is at least 4 here: K21Q
Solution: Met
